Assay: in vitro
Conditions: human, hela cells, % viability
I'd be grateful if you could share measured viability at 28.5 h, 10 µM for these entries.
All answers are understood in %, so give the number only.

Req: Item under review: "C[C@@H]1CN(C(=O)OCc2ncc(F)cc2F)C[C@H](C)O1" . Reported viability at 28.5 h, 10 µM?
Resp: 103

Req: Which viability at 28.5 h, 10 µM is listed for "COc1cc(Nc2cc(-c3ccc(F)c(F)c3)ncn2)cc(OC)c1OC" ?
Resp: 94.7

Req: Quick one: viability at 28.5 h, 10 µM for "O=C(Nc1cc2cccnc2c(Br)n1)Nc1ccc(F)cc1C(F)(F)F" ?
Resp: 88.8

Req: Query: viability at 28.5 h, 10 µM; subject: "CCOC(=O)c1cn([C@H](CO)CCSC)cc(Oc2ccccc2)c1=O"
Resp: 98.9

Req: Given the molecule CC(NC1CCCN(c2ccc(C#N)cc2)C1=O)c1cncc(F)c1 (stereo not shown) , what is its reported viability at 28.5 h, 10 µM?
Resp: 90.7

Req: // query viability at 28.5 h, 10 µM value for entry "Fc1ccc(-c2ccc(Nc3cccnc3)nc2)cc1Cl"
Resp: 93

Req: Any idea what viability at 28.5 h, 10 µM was measured for "NC(=O)c1ccc(-c2cncc(NCc3ccco3)n2)cc1" ?
Resp: 85.6

Req: Endpoint output: viability at 28.5 h, 10 µM of "FC(F)(F)c1cccc(Sc2cccc3ccccc23)n1" . Value?
Resp: 94.8

Req: Please give the measured viability at 28.5 h, 10 µM for this molecule: "Cc1cc(CNC(=O)N2CCN(CCc3ccccc3)CC2)no1"
Resp: 92.7

Req: Can you look up the measured viability at 28.5 h, 10 µM of "FC(F)(F)c1cccc(OCc2nnn[nH]2)c1" for me?
Resp: 88.4

---

Test: in vitro
Design: Viability of infected HeLa host cells, resazurin conversion, bulk resorufin fluorescence relative to DMSO
Conditions: human, hela cells; bulk resorufin, mean of 2
recorded_metric: viability at 28.5 h, 5 µM (%)
Provide only the numeric value, understood in %.

Req: Which viability at 28.5 h, 5 µM is reported for this compound? CC1=NN(c2ccccc2)C(=O)/C1=C/Nc1ccc(S(=O)(=O)Nc2nc(C)cc(C)n2)cc1 [CBK262368]
Resp: 93.9

Req: Could you share which viability at 28.5 h, 5 µM value was measured for CCC(=O)N1CCCc2cc(C(O)CN3CCN(c4ccc(F)cc4)CC3)ccc21 (stereo not drawn) [CBK286480] ?
Resp: 84

Req: # input compound: COc1ccc(CC(=O)N2CCCC(c3nc(C)c4c(n3)N(CC3CC3)CCC4)C2)cc1 (stereo not drawn) [CBK286228] ; wanted: its viability at 28.5 h, 5 µM
Resp: 97.8

Req: Consider the compound shown here: O=C(NCCc1c[nH]c2ccc(Cl)cc12)c1c(F)ccc(Cl)c1F [CBK159756] What is its recorded viability at 28.5 h, 5 µM?
Resp: 96.7

Req: May I ask what viability at 28.5 h, 5 µM has been recorded for O=C(NCC1CC1)c1ccc(N2CCN(C(=O)c3ccccc3C(F)(F)F)CC2)nn1 [CBK153220] ?
Resp: 93

Req: Requested field: viability at 28.5 h, 5 µM. Item: O=C(O)c1cn(C2CC2)c2cc(N3CCN(C(=O)Cc4ccccc4Cl)CC3)c(F)cc2c1=O [CBK297136]
Resp: 89.1

Req: Look up viability at 28.5 h, 5 µM: Cc1cc(C(=O)Nc2ccc(S(=O)(=O)Nc3onc(C)c3C)cc2)no1 [CBK268166]
Resp: 92.7

Req: Quick check: viability at 28.5 h, 5 µM of CC(Oc1cccc2ccccc12)C(=S)N(C)c1ccccc1 (stereo not drawn) [CBK016158] ?
Resp: 117

Req: Recorded viability at 28.5 h, 5 µM of CC(C)Nc1nc2cc(Cl)c(Cl)cc2nc1Sc1cccc(O)c1 [CBK093732] , please.
Resp: 88

Req: What does the data say about its viability at 28.5 h, 5 µM? Entry: CCC(c1ccc(F)cc1)N(C)C(=O)Cn1cc(C(=O)NC2CCCCC2)ccc1=O (stereo not drawn) [CBK286106]
Resp: 95.3

Req: So what does the record say about viability at 28.5 h, 5 µM for NCCCNc1ncc(C(=O)NCc2ccccc2)c(NCC2CCCCC2)n1 [CBK215386] ?
Resp: 116

Req: What value of viability at 28.5 h, 5 µM has been recorded for this entry: Cc1nn(C)c(N2CCN(C(=O)OC(C)(C)C)CC2)c1N [CBK034182]
Resp: 94.8

Req: # lookup: viability at 28.5 h, 5 µM of CC(Nc1cccc2ccccc12)C(=O)N/N=C/c1ccc(O)cc1O (stereo not drawn) [CBK262681]
Resp: 86.9

Req: Looking for the measured viability at 28.5 h, 5 µM of O=C(N/N=C\c1ccc([N+](=O)[O-])o1)c1nc(-c2ccccc2)cc(-c2ccccc2)n1 [CBK261958] , can you help?
Resp: 91.8

Req: Query: viability at 28.5 h, 5 µM; subject: CCOc1ccc(OCC)c2c1n(C)c(SC)[n+]2C [CBK005720G]
Resp: 86.2

Req: Requested read-out: viability at 28.5 h, 5 µM. Entry: COc1c(Br)cc2c(cc(C)n2-c2ccccc2)c1OCC(O)CNC(C)C (stereo not drawn) [CBK263516]
Resp: 83

Req: May I ask what viability at 28.5 h, 5 µM has been recorded for c1ccc(-c2nc3cc4ccccc4cc3[nH]2)nc1 [CBK000130] ?
Resp: 95.7

Req: What does the data say about its viability at 28.5 h, 5 µM? Entry: COc1ccc2cc3c(nc2c1)OC(=O)N(CC1CC1)C3 [CBK282432]
Resp: 108

Req: Given Oc1ccc(Cn2cnc3ccccc32)c2cccnc12 [CBK291202] , state its recorded viability at 28.5 h, 5 µM.
Resp: 104

Req: GET /values?readout=viability at 28.5 h, 5 µM&item= CN1CCCN(c2ccc(NS(=O)(=O)c3cccc(F)c3)c3ccccc23)CC1 [CBK200010C]
Resp: 100

Req: Record request: viability at 28.5 h, 5 µM value, item C[C@H](NC(=O)Cc1ccc(-c2ccccc2)cc1)c1nc2ccccc2[nH]1 [CBK296998]
Resp: 97.4

Req: Which viability at 28.5 h, 5 µM value is on record for CC(Cc1nc(-c2nccn2C(C)C)cs1)n1cc(Cl)cn1 (stereo not drawn) [CBK304251] ?
Resp: 96.5

Req: Query (compound): Cn1nnnc1-c1cccc(NC(=O)c2ccc(Oc3ccccc3)cc2)c1 [CBK297872] ; field requested: viability at 28.5 h, 5 µM
Resp: 88.4

Req: What value of viability at 28.5 h, 5 µM has been recorded for this entry: CN1CCN(c2cc3c(cc2F)c(=O)c(C(=O)O)cn3-c2ccc(F)cc2)CC1 [CBK287138]
Resp: 102

Req: // returns reported viability at 28.5 h, 5 µM for input COc1cccc(C(=O)/C=C\Nc2ccc(S(=O)(=O)Nc3onc(C)c3C)cc2)c1 [CBK264206]
Resp: 104

Req: Reported viability at 28.5 h, 5 µM, compound COc1ccc(CCN(CCc2ccccc2)CC(O)COc2cccc3c2CCCC3)cc1 (stereo not drawn) [CBK024506T] : ____
Resp: 95.2

Req: Would you mind telling me what viability at 28.5 h, 5 µM value was observed for COc1cc(CN2CCNCC2)c2ccn(S(=O)(=O)c3cccc(Cl)c3C)c2c1 [CBK144484T] ?
Resp: 95.7

Req: Query (compound): O=C(Nc1ncc(-c2ccccc2)s1)c1cccc([N+](=O)[O-])c1 [CBK157055] ; field requested: viability at 28.5 h, 5 µM
Resp: 102

Req: Looking for the measured viability at 28.5 h, 5 µM of CC(C)(N)CNC(=O)c1cc(C(C)(C)C)nn1Cc1ccc(Cl)cc1Cl [CBK107296] , can you help?
Resp: 95.2

Req: Bench note: what viability at 28.5 h, 5 µM did O=C1CC[C@@H](NCc2cccs2)[C@H](c2cc(F)cc(F)c2)N1 [CBK283129] show?
Resp: 109

Req: Using the record for CCCN(CCC)CCc1cccc2c1CCN2C(=O)c1cc2ccccc2s1 [CBK017871C] , report its viability at 28.5 h, 5 µM.
Resp: 96.9

Req: What does the record list as viability at 28.5 h, 5 µM for CN(C(=O)Cc1ccsc1)c1nc2c(s1)CCc1c-2cnn1C [CBK281929] ?
Resp: 96

Req: Given N=c1c2c(-c3ccccc3)c(-c3ccccc3)n(Cc3ccccc3)c2ncn1CCN1CCOCC1 [CBK268537] , state its recorded viability at 28.5 h, 5 µM.
Resp: 97.8
